Recorded values, source paper PMC10709440.

Biological target: Drosophila OR98a (Drosophila melanogaster)
Construct: expressed in transfected cells
Sequence (Q9VAZ3 whole entry, one chain of several): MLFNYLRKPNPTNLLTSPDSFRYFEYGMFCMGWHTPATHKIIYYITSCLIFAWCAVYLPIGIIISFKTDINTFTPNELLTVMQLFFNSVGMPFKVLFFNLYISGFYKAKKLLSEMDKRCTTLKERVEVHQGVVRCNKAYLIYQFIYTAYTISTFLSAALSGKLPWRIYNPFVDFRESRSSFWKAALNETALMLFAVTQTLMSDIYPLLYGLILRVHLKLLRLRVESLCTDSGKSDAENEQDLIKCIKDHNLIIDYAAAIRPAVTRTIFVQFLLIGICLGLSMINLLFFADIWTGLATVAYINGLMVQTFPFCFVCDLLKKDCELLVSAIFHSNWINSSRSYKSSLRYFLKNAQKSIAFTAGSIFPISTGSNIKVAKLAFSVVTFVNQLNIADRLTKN
Experiment: Calcium ion fluorescence (GCaMP6) assay, OR98a stable HEK293 cell line
Format: cell-based
Details: cc. 100 µM; OR98a cell line; average of biological replicates; fraction of VUAA1 response
Given measured Average response, output Condition met if it is greater than or equal to 0.03 and Condition not met if not.

{"columns": ["compound", "measured.target", "assigned.category"],
 "data": [
  ["C=C(C)[C@H]1CC=C(C)CC1 [limonene]", "Drosophila OR98a (Drosophila melanogaster)", "Condition not met"],
  ["C=C(C)C1CCC2(C)OC2C1 (single isomer, unassigned; (+)) [(+)-limonene oxide]", "Drosophila OR98a (Drosophila melanogaster)", "Condition not met"],
  ["C=C1[C@H]2CC[C@@H]3[C@H]2C(C)(C)CCC[C@]13C [(+)-longifolene]", "Drosophila OR98a (Drosophila melanogaster)", "Condition not met"],
  ["CC/C=C\\CCO", "Drosophila OR98a (Drosophila melanogaster)", "Condition met"],
  ["CC(C)=CCC/C(C)=C/CC/C(C)=C/CO", "Drosophila OR98a (Drosophila melanogaster)", "Condition met"]
]}

In: Could you tell me if the measured Average response of CC/C=C/CCO reaches 0.03 or more?
Out: Condition not met

In: Could you tell me if the measured Average response of CC1=CCC[C@@]2(C)[C@@H]3CC[C@]12CC3(C)C [(−)-α-neoclovene] reaches 0.03 or more?
Out: Condition met

----------
Target: Drosophila OR85b (Drosophila melanogaster)
Construct: expressed in transfected cells
Test: Calcium ion fluorescence (GCaMP6) assay, OR85b stable HEK293 cell line
Type: cell-based
Settings: HEK293, read-out: OR85b response (VUAA1-normalized response)
reported.property: activation at 100 µM (%)
Give bare numbers, in %.

{"columns": ["molecule", "reported.property", "value.unit", "measurement"],
 "data": [
  ["C=CC(O)CCCCC (stereo not drawn) [1-octen-3-ol]", "activation at 100 µM", "%", 8]
]}

Please give activation at 100 µM for each item listed below.
1. CCCCCC(=O)OCC [ethyl hexanoate]
2. CCCCOC(C)=O [butyl acetate]
3. C=C1CC[C@H]2O[C@]2(C)CC[C@@H]2[C@@H]1CC2(C)C [(-)-caryophyllene oxide]
4. CCCCC(C)=O [2-hexanone]
5. O=Cc1ccccc1 [benzaldehyde]
6. Cc1ccc(O)cc1 [4-methylphenol]
7. CCCCCCCCC(CO)CCCCCC (stereo not drawn) [2-hexyl-1-decanol]
8. COc1cccc(OC)c1 [1,3-dimethoxy benzene]

Out:
1. 0
2. 0
3. 0
4. 0
5. 0
6. 0
7. 8
8. 0

----------
Please provide measured Average response for the entries that follow.
Biological target: Drosophila OR85b (Drosophila melanogaster, UniProt Q9VHQ7)
Construct: expressed in transfected cells
Sequence (Q9VHQ7 whole entry, one chain of several): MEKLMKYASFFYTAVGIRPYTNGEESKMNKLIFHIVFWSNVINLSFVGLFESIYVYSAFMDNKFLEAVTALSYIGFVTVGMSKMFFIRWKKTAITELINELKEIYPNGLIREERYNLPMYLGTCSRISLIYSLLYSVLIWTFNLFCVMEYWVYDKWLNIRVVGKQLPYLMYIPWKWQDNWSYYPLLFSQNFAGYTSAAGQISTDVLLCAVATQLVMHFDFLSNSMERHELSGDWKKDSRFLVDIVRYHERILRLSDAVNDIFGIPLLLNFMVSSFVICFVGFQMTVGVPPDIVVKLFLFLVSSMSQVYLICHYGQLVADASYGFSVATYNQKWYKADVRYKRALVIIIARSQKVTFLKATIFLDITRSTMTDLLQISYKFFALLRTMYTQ
Assay: Calcium ion fluorescence (GCaMP6) assay, OR85b stable HEK293 cell line
Type: cell-based
Settings: OR85b cell line; cc. 100 µM; VUAA1-normalized response, mean of biological replicates
Give bare numbers.

{"columns": ["molecule", "measured.target", "reported.property", "measurement"],
 "data": [
  ["CCCCCO [1-pentanol]", "Drosophila OR85b (Drosophila melanogaster, UniProt Q9VHQ7)", "Average response", 0.00]
]}

Please give Average response for each item listed below.
1. Cc1cccc(O)c1 [3-methylphenol]
2. CC(=O)OCC(C)C [isobutyl acetate]
3. CCc1ccccc1 [ethylbenzene]
4. CC/C=C\CCOC(C)=O [z3-hexenyl acetate]
5. C=C1CCC2CC1C2(C)C (stereo not drawn) [beta-pinene]
6. CC(=O)OCCC(C)C [isopentyl acetate]

Out:
1: 0.02; 2: 0.03; 3: 0.00; 4: 0.00; 5: 0.09; 6: 0.0239

----------
Target: Drosophila OR49b (Drosophila melanogaster, UniProt Q9V6H2)
Construct: expressed in transfected cells
Sequence (Q9V6H2 whole entry, one chain of several): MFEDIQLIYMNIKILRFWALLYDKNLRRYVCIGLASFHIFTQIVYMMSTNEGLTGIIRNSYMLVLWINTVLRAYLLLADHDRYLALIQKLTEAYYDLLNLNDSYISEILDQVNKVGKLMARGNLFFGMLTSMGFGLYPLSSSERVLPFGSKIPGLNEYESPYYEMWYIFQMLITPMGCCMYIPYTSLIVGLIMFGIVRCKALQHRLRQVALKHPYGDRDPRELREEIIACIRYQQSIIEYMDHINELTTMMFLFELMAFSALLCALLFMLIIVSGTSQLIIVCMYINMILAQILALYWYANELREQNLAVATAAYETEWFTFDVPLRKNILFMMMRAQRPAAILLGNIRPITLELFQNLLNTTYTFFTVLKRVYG
Experiment: cell-based
Conditions: OR49b cell line, VOC concentration 1 μM
Please provide measured OR49b response (VUAA1-normalized) at 1 μM for the entries that follow.

Here's what some known entries look like.
{"columns": ["compound", "measured.target", "measurement"],
 "data": [
  ["CC/C=C\\CCOC(C)=O [Z-3-hexenyl acetate]", "Drosophila OR49b (Drosophila melanogaster, UniProt Q9V6H2)", 0.00],
  ["CCCCCCCCCCCCCC [tetradecane]", "Drosophila OR49b (Drosophila melanogaster, UniProt Q9V6H2)", 0.07],
  ["CCCCCCCCCCC [undecane]", "Drosophila OR49b (Drosophila melanogaster, UniProt Q9V6H2)", 0.00]
]}

# context switch: different compound, same OR49b response (VUAA1-normalized) at 1 μM
In: What OR49b response (VUAA1-normalized) at 1 μM value was documented for this compound, COC(=O)c1ccccc1 [methyl benzoate] ?
Out: 0.13

----------
Molecular target: Drosophila OR47a (Drosophila melanogaster)
Construct: expressed in transfected cells
Sequence (P81921 1-385): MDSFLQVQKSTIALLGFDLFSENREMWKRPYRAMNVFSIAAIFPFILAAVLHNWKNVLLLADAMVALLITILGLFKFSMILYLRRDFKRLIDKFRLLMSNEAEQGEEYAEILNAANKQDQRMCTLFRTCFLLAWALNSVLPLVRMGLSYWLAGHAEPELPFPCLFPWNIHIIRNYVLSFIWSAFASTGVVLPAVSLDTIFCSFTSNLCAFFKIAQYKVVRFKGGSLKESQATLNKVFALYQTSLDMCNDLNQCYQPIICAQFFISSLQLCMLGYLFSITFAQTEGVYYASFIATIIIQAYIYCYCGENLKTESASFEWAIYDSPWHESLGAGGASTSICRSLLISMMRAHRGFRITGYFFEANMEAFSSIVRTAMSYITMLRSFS
Sequence (Q9VNB5 1-486 partner): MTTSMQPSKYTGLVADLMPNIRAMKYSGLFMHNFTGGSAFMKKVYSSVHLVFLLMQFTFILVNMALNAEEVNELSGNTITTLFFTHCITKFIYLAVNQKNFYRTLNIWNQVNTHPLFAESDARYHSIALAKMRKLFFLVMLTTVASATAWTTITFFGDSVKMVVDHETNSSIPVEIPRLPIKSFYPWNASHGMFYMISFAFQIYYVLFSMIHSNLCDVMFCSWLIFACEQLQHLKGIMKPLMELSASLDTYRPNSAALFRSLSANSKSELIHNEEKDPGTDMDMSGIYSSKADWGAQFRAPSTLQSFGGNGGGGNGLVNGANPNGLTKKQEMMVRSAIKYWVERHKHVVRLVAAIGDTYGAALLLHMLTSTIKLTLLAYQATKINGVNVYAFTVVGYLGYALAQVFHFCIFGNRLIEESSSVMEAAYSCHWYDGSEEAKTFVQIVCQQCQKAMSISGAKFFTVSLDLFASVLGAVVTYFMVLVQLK
Experiment: Calcium ion fluorescence (GCaMP6) assay, OR47a stable HEK293 cell line
Format: cell-based
Settings: AVERAGE EC50, the 14th table; corresponds to average LOG EC50, given with 95% confidence interval
reported.property: pEC50
Give bare numbers, as −log10 of the molar value.

In: What pEC50 value was documented for this compound, CCCCCOC(C)=O [pentyl acetate] ?
Out: 5.65

----------
Please provide measured DF norm AVERAGE OR13a for the entries that follow.
Biological target: Drosophila OR13a (Drosophila melanogaster, UniProt Q9VXL0)
Construct: expressed in transfected cells
Sequence (Q9VXL0 whole entry, one chain of several): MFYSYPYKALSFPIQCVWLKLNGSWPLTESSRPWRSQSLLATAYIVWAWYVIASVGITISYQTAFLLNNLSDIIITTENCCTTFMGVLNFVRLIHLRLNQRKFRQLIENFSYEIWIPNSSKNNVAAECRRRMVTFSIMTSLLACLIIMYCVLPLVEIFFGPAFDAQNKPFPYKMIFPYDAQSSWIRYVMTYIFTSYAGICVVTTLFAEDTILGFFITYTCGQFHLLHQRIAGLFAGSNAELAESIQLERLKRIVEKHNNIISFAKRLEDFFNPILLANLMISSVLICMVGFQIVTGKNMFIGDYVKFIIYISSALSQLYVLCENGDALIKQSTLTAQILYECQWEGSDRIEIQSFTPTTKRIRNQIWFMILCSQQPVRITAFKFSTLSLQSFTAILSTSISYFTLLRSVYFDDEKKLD
Experiment: Calcium ion fluorescence (GCaMP6) assay, OR13a stable HEK293 cell line
Assay type: cell-based
Details: concentration 10; normalized fluorescence change, values below 0.05 threshold given as 0
Give bare numbers.

Here's what some known entries look like.
{"columns": ["compound", "reported.property", "measurement"],
 "data": [
  ["Cc1ccc(O)cc1", "DF norm AVERAGE OR13a", 0],
  ["CCCCCCCO", "DF norm AVERAGE OR13a", 0.145],
  ["CC1=CCC[C@@]2(C)[C@@H]3CC[C@]12CC3(C)C [(−)-α-neoclovene]", "DF norm AVERAGE OR13a", 0],
  ["C=C(C)[C@H]1CC=C(C)CC1 [(R)-(+)-limonene]", "DF norm AVERAGE OR13a", 0],
  ["COc1cccc(OC)c1", "DF norm AVERAGE OR13a", 0]
]}

# context switch: different compound, same DF norm AVERAGE OR13a
In: What DF norm AVERAGE OR13a value was documented for this compound, CCCCC(C)O (stereo not drawn) ?
Out: 0

----------
Target: Drosophila OR10a (Drosophila melanogaster)
Construct: expressed in transfected cells
Sequence (Q9VYZ1 whole entry, one chain of several): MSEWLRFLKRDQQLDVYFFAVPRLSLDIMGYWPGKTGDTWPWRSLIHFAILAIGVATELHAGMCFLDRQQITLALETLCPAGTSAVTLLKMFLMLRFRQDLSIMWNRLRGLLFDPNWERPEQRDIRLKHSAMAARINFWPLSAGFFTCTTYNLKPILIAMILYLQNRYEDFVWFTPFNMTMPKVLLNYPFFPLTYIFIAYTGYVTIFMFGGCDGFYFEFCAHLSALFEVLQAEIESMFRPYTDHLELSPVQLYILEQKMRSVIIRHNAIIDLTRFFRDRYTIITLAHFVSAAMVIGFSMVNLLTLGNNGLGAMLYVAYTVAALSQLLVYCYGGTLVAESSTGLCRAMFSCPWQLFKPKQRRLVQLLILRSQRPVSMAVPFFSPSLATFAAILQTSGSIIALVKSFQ
Test: Calcium ion fluorescence (GCaMP6) assay, OR10a stable HEK293 cell line
Format: cell-based
Conditions: OR10a cell line, VOC concentration 1 μM
reported.property: OR10a response (VUAA1-normalized) at 1 μM
One number for each entry.

Here's what some known entries look like.
{"columns": ["compound", "measurement"],
 "data": [
  ["CC/C=C\\CCO [Z-3-hexenol]", 0.17],
  ["C=Cc1ccccc1 [styrene]", 0.00],
  ["Cc1ccccc1 [toluene]", 0.00],
  ["OCCc1ccccc1 [phenethyl alcohol]", 0.00]
]}

# context switch: different compound, same OR10a response (VUAA1-normalized) at 1 μM
In: What OR10a response (VUAA1-normalized) at 1 μM value was documented for this compound, CC/C=C\CCOC(C)=O [Z-3-hexenyl acetate] ?
Out: 0.14
